Taken from paper PMC12799587.

- Target System: β1-AR (Homo sapiens)
- Sequence (P08588 whole entry): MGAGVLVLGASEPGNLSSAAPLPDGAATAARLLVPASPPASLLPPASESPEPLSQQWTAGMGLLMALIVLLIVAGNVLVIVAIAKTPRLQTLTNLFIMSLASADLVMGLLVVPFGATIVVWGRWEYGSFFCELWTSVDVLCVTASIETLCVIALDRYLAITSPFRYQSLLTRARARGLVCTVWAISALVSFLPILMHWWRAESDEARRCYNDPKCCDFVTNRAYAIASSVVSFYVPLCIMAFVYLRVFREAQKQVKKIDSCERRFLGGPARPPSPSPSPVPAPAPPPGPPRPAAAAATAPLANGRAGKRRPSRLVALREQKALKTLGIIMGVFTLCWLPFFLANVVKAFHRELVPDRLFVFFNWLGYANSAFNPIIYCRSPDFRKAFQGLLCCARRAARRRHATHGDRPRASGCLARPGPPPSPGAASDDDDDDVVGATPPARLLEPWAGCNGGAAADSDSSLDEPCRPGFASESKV
- Method Summary: CRE-SPAP production in CHO-β1-CRE-SPAP cells
- Assay type: cell-based
- Design: expressed in transfected cells; host or cells: CHO-K1 clonal lines (CHO-β1-CRE-luc, CHO-β1-CRE-SPAP)
- Assay Setup: Log KD Secondary Conformation CGP12177 as Agonist, rightward shift of CGP12177 response, CHO-β1-CRE-SPAP cells
Endpoint: Kd (nM)

>>> recorded_value("CC(C)(C)NC[C@H](O)COc1cccc2c1CCCC2=O")
562

---

- Target System: β1-V189T-L195Q-W199Y (Homo sapiens, UniProt P08588, L195Q/V189T/W199Y)
- Sequence (P08588 whole entry V189T/L195Q/W199Y): as the sequence (P08588 whole entry) above, with V189T, L195Q, W199Y counted along it
- Method Summary: 3H-CGP12177 whole-cell binding in stable mixed populations of CHO cells expressing β1-V189T-L195Q-W199Y
Endpoint: Kd

>>> recorded_value("CC(C)(C)NC[C@@H](O)COc1ccccc1C#N")
"2.45 nM"
>>> recorded_value("Cc1cc2c(OC[C@@H](O)CNC(C)(C)C)cccc2[nH]1")
"0.275 nM"

---

- Target System: β1-AR (Homo sapiens)
- Method Summary: CRE-SPAP production in CHO-β1-CRE-SPAP cells
- Assay type: cell-based
- Design: expressed in transfected cells; host or cells: CHO-K1 clonal lines (CHO-β1-CRE-luc, CHO-β1-CRE-SPAP)
- Assay Setup: Log KD Catecholamine conformation Cimaterol as Agonist, rightward shift of cimaterol response, CHO-β1-CRE-SPAP cells; Gaddum, or Stephenson (a)
Endpoint: Kd (nM)

>>> recorded_value("CC(C)(C)NC[C@H](O)COc1cccc2c1CCCC2=O")
1.78

---

- Target System: β1-AR (Homo sapiens)
- Method Summary: 3H-CGP12177 whole-cell binding in CHO-β1-CRE-SPAP cells
Please note: Kd exactly at 5 nM is not fulfilled. Only values below 5 nM get fulfilled.

>>> assigned_category("O[C@H](CNCCc1c[nH]c2ccccc12)COc1ccc(F)cc1")
"not fulfilled"
>>> assigned_category("CC(C)(C)NC[C@@H](O)COc1ccccc1C#N")
"fulfilled"
>>> assigned_category("Cc1cc2c(OC[C@@H](O)CNC(C)(C)C)cccc2[nH]1")
"fulfilled"
>>> assigned_category("COc1ccc(OCC(O)CNCCc2c[nH]c3ccccc23)cc1 (stereo not shown)")
"not fulfilled"
>>> assigned_category("COc1ccccc1OC[C@@H](O)CNC(C)C")
"not fulfilled"
>>> assigned_category("CC(C)(Cc1c[nH]c2ccccc12)NCC(O)COc1ccccc1C#N (stereo not shown) [Bucindolol, reference compound]")
"fulfilled"

---

- Target System: β1-AR (Homo sapiens)
- Method Summary: Summary of pharmacological outcome at the β1-AR (CHO-β1-luciferase or CHO-β1-SPAP cells)
- Assay Setup: β1-AR, summary
Endpoint: Pharmacological Outcome: CCE/IBS conformation

>>> recorded_value("CC(C)NCC(O)COc1cccc2[nH]ccc12 (racemic) [Pindolol, reference compound]")
"Agonist (biphasic)"
>>> recorded_value("CC(C)(Cc1c[nH]c2ccccc12)NCC(O)COc1ccccc1C#N (stereo not shown) [Bucindolol, reference compound]")
"Agonist (biphasic)"
>>> recorded_value("OCCOc1ccc(CNCCc2c[nH]c3ccccc23)cc1")
"No receptor interaction"
>>> recorded_value("CC(C)(C)NC[C@@H](O)COc1ccccc1C#N")
"Agonist (biphasic)"
>>> recorded_value("Cc1cc(C)c(OC[C@@H](O)CNC(C)C)c(C)c1")
"No receptor interaction"
>>> recorded_value("COc1ccccc1OC[C@@H](O)CNC(C)C")
"Agonist"
>>> recorded_value("O[C@H](CNCCc1c[nH]c2ccccc12)COc1ccc(F)cc1")
"Agonist"
>>> recorded_value("C=CCc1ccccc1OCCNCCCOC")
"No receptor interaction"
>>> recorded_value("C=CCOc1ccccc1OCC(O)CNC(C)C (racemic) [Oxprenolol, reference compound]")
"Agonist (biphasic)"
